The origin of these recorded values is paper doi:10.1101/327320.

- target_of_assay: T1, Pif1-K264A (Saccharomyces cerevisiae, UniProt P07271 1-859, K264A)
- T1 sequence: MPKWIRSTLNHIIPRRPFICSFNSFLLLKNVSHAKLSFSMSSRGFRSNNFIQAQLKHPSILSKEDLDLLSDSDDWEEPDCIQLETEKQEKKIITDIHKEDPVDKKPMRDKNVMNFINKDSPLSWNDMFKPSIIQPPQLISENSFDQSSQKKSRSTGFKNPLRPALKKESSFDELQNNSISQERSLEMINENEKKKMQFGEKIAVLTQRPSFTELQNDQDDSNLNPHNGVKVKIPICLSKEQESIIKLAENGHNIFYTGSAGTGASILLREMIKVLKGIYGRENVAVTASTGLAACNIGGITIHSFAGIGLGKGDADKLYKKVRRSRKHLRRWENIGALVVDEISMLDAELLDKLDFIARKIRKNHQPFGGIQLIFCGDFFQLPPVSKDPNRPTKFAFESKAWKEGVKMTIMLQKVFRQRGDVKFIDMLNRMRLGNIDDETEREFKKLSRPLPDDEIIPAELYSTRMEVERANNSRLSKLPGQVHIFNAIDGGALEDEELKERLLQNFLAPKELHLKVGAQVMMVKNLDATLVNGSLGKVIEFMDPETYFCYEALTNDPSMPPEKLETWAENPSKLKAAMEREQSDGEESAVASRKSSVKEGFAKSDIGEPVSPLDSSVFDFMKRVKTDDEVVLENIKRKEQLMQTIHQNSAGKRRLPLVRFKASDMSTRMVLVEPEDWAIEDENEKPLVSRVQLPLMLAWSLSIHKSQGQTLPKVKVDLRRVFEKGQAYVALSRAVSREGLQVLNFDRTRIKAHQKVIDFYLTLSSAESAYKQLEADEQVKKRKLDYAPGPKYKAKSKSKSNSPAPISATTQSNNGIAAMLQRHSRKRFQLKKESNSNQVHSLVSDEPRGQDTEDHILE
- measurement_protocol: EMSA
pKd: −log10 of the molar value.

binder | pKd
CGCCATGCTGATCCGTGTGGTGTGTGTGGG (ssDNA) [Tel30] | 7.39
